Kindly state IC50 for each of the entries shown.
Biological target: HIV-1 integrase (wild-type IN) (Human immunodeficiency virus type 1 group M subtype B)
Assay: HIV-1 integrase 3′-processing assay (32P-labeled 21-mer, gel)
Format: biochemical
Conditions: unit inferred; read-out: IN inhibition activity 3′-processing

Take a look at these entries with their results.
# compound, IC50
measured = [
    ("CC(C)(C)c1ccc(C(=O)N/N=C/c2ccc(-c3cccc(C(=O)O)c3)o2)cc1 [AV15A36]", "> 100 µM"),
    ("Cc1nnc(N/N=C/c2ccc(-c3ccccc3C(=O)O)o2)n1N [AV15A37]", "> 100 µM"),
    ("O=C(O)c1cc(-c2ccc(/C=N/Nc3nc4nonc4nc3Nc3ccc(F)cc3)o2)ccc1Cl [AV15A15]", "12 µM"),
    ("N#C/C(=C\\c1ccc(-c2cccc(C(=O)O)c2)o1)c1nc2ccccc2[nH]1 [AV15A7]", "> 100 µM"),
    ("O=C(Cc1ccc(F)cc1)N/N=C/c1ccc(-c2ccc(Cl)c(C(=O)O)c2)o1 [AV15A47]", "> 100 µM"),
]

# return IC50 for each item in the list
1. N=C1NC(=O)/C(=C\c2ccc(-c3cccc(C(=O)O)c3)o2)S1 [AV15A2]
2. O=C(N/N=C/c1ccc(-c2ccc(Cl)c(C(=O)O)c2)o1)c1ccc(F)cc1 [AV15A41]
3. N=C1S/C(=C/c2ccc(-c3ccccc3C(=O)O)o2)C(=O)N1c1ccc2c(c1)OCO2 [Compound T36]
4. O=C(O)c1cc(-c2ccc(/C=c3\sc4nc5ccccc5n4c3=O)o2)ccc1Cl [AV15A22]

Response:
["> 100 µM", "> 100 µM", "12 µM", "23 µM"]

Record IC50 for all entries; do not skip any.
1. COc1ccc(/C=N/NC(=O)CSc2nnc(-c3ccccc3)n2-c2ccccc2)c(C(=O)O)c1OC [OT10]
2. COc1cc(-c2nc3ccccn3c2/N=C/c2ccc(-c3ccc(Cl)c(C(=O)O)c3)o2)ccc1O [AV15A25]
3. CCOC(=O)c1sc(N2C(=O)C(O)=C(C(=O)c3ccccc3)C2c2ccc(F)cc2)nc1C (centres unmarked) [Compound M28A10]
4. O=C(O)c1cccc(-c2ccc(/C=N/Nc3nc(N4CCOCC4)nc(N4CCOCC4)n3)o2)c1 [AV15A16]
5. COc1cc(C(=O)N/N=C/c2ccc(-c3cccc(C(=O)O)c3)o2)cc(OC)c1OC [AV15A38]
6. O=C(O)c1cccc(-c2ccc(/C=C3\Sc4ccccc4C3=O)o2)c1 [AV15A6]

Response:
> 100 µM
> 100 µM
44 µM
> 100 µM
> 100 µM
76 µM

List IC50 for every entry below, keeping the order given.
1. CC1=C(C#N)c2nc(N)c(C#N)c(C)c2/C1=C/c1ccc(-c2ccccc2C(=O)O)o1 [AV15A54]
2. O=C(C1=C(O)C(=O)N(c2nc3ccccc3s2)C1c1ccccn1)c1ccc(Cl)cc1 (centres unmarked) [Compound M28A22]

Response:
1: > 100 µM; 2: > 100 µM

----------
Biological target: HIV-1 integrase (wild-type IN) (Human immunodeficiency virus type 1 group M subtype B)
Assay: HIV-1 integrase strand transfer assay (32P-labeled 21-mer, gel)
Format: biochemical
Conditions: wild-type IN 200 nM, 7.5 mM MnCl2; read-out: Inhibition of IN Catalytic Activities IC50 (μM) Strand Transfer
We'd kindly ask you to apply these IC50 classes: low interval (below 20 µM), middle interval (20 µM to below 70 µM), high interval (70 µM or more)

Past entries and their recorded results:
# chem-smiles, answer-label
data = [
    ("CCn1cc(C(=O)O)c(=O)c2c(N)c(F)c(N3CCNCC3)c(F)c21", "high interval"),
    ("O=C(N/N=C/c1ccc(-c2ccc(Cl)c(Cl)c2)o1)c1ccccc1O", "low interval"),
    ("O=C(Cc1ccccc1)Nc1cc(C(=O)O)c(NC(=O)Cc2ccccc2)cc1C(=O)O", "low interval"),
    ("CCc1ccc(C=C2SC(=S)N(CC(=O)Nc3cccc(C(=O)O)c3)C2=O)cc1", "high interval"),
]

Request: Into which category would you place `CC(C)Cn1c(=O)c(C(=O)Nc2ccccc2S(N)(=O)=O)c(O)c2ccccc21` ?
Response: low interval

Request: Given `Cc1nc(=O)c(-c2ccccc2)c(C)n1-c1ccc(C(=O)O)c(O)c1` , name the class its IC50 places it in.
Response: high interval

Request: Given `O=C(NC1CC1)c1c[nH]c2ccc(S(=O)(=O)Nc3cccc(C(F)(F)F)c3)cc2c1=O` , name the class its IC50 places it in.
Response: high interval

Request: Band of `Cc1ccc(/C=C2\SC(=S)N(CCC(=O)Nc3ccc(S(=O)(=O)Nc4nccs4)cc3)C2=O)cc1` ?
Response: middle interval

Request: In plain terms, what class is `CCc1ccc(C=C2SC(=S)N(CCC(=O)Nc3ccc(O)c(C(=O)O)c3)C2=O)cc1` ?
Response: low interval

Request: Which class is correct for the following compound? `CCn1cc(C(=O)O)c(=O)c2cc(F)c(N3CCN(S(=O)(=O)c4ccc(NC(C)=O)cc4)CC3)cc21`
Response: high interval

Request: Please report the category associated with `CCCc1cc2c(-c3ccccc3)cc(=O)oc2cc1OCc1ccc(C(=O)O)o1` , nothing else.
Response: middle interval

Request: Class (by measured IC50) for `O=C(CCN1C(=O)C(=Cc2cccs2)SC1=S)Nc1ccc(O)c(C(=O)O)c1`
Response: middle interval

Request: Into which category would you place `CCn1cc(C(=O)NN)c(=O)c2cc(F)c(N3CCCCCC3)cc21` ?
Response: high interval

Request: For `COc1cc(/C=C2/SC(=S)N(CCC(=O)O)C2=O)ccc1OC(=O)c1ccccc1` , which IC50 bin applies?
Response: middle interval

Request: Bin this entry: `COc1ccc(C=C2SC(=S)N(CCC(=O)Nc3cccc(C(=O)O)c3)C2=O)cc1`
Response: high interval

----------
Molecular target: HIV-1 integrase (wild-type IN) (Human immunodeficiency virus type 1 group M subtype B, UniProt P12497)
Assay: HIV-1 integrase 3′-processing assay (32P-labeled 21-mer, gel)
Format: biochemical
Conditions: unit inferred; read-out: HIV-1 IN Inhibitory Activities 3′-processing
Binary call on IC50 with cut-off 90 µM: strictly below means T, and equality or higher means F.

Solved cases below.
# compound, answer-label
records = [
    ("O=C(/C=C/c1ccco1)NC(=S)Nc1ccccc1O", "T"),
    ("Cc1ccc(C(=O)C2=C(O)C(=O)N(CCCn3ccnc3)C2c2ccc(Cl)cc2)cc1 (centres unmarked)", "F"),
    ("O=C(CSc1nc(CSc2ccc(Cl)cc2)cc(=O)[nH]1)Nc1ccc(Cl)cc1Cl", "T"),
]

Request: Determine whether this compound shows IC50 lower than 90 µM (ties excluded): `O=C(Nc1cc(C(=O)Nc2ccccc2C(=O)O)cc(C(=O)Nc2ccccc2C(=O)O)c1)c1ccccc1`
Response: T

Request: Is it true that IC50 reported for `Oc1ccccc1/C=N/CC(O)C/N=C/c1ccccc1O` is less than 90 µM?
Response: F

Request: # TODO verify IC50 < 90 µM strictly for this compound: `O=C(Nc1ccc(O)c(-c2nc3ccccc3o2)c1)c1cccc2ccccc12`
Response: T

----------
Molecular target: UniProtKB P12497
Assay: HIV-1 integrase 3′-processing assay (32P-labeled 21-mer, gel)
Type: biochemical
Details: Table 53, structurally diverse compounds; read-out: IN inhibition activity 3′-processing
I'd be grateful if you could share measured IC50 for these entries.
Give bare numbers, in µM.

# molecule, IC50 / µM
measured = [
    ("O=C(Nc1ccccc1C(=O)O)c1cccc(S(=O)(=O)Nc2ccc(Oc3ccccc3)cc2)c1", 42),
    ("Cc1ccc2nc(-c3ccc(NC(=O)/C=C/C(=O)O)cc3)sc2c1", 48),
    ("O=C(O)CN1C(=O)/C(=C2\\SC(=S)N(C(Cc3ccccc3)C(=O)O)C2=O)c2ccccc21 (stereo not shown)", 92),
]

# evaluate next
Request: Short answer please: IC50, UniProtKB P12497, entry `Cc1ccc(C(=O)O)cc1NC(=O)CSc1nc2ccccc2s1`
Response: 63

----------
Target: HIV-1 integrase (wild-type IN) (Human immunodeficiency virus type 1 group M subtype B)
Assay: HIV-1 integrase 3′-processing assay (32P-labeled 21-mer, gel)
Format: biochemical
Conditions: wild-type IN 200 nM, 7.5 mM MnCl2; read-out: Inhibition of IN Catalytic Activities IC50 (μM) 3′-processing
Consider the following compounds; for each one, report its IC50.
Give bare numbers, in µM.

# count of solved cases: 3
# compound, IC50, µM
measured = [
    ("O=C(CN1C(=O)/C(=C2\\SC(=S)N(CC(=O)Nc3ccc(C(=O)O)cc3)C2=O)SC1=S)Nc1ccc(C(=O)O)cc1 [Compound X102]", 59),
    ("COc1ccc(/C=C2/SC(=S)N(CC(=O)O)C2=O)cc1CCc1ccc(Cl)cc1Cl [OT6]", 17),
    ("O=C(NCc1cccs1)c1c[nH]c2ccc(S(=O)(=O)Nc3ccc4c(c3)OCCO4)cc2c1=O [ROM3A11]", 91),
]

Turning to the following compound.
Request: Give IC50 (HIV-1 integrase (wild-type IN) (Human immunodeficiency virus type 1 group M subtype B)) of the following compound: Oc1cccc2ccc(/C=C/c3ccc(-c4cccc(Cl)c4)o3)nc12 [RT29]
Response: 30
